Target: recombinant human transglutaminase 2 (Homo sapiens, UniProt P21980)
Construct: purchased Zedira T022
Sequence (P21980 1-687): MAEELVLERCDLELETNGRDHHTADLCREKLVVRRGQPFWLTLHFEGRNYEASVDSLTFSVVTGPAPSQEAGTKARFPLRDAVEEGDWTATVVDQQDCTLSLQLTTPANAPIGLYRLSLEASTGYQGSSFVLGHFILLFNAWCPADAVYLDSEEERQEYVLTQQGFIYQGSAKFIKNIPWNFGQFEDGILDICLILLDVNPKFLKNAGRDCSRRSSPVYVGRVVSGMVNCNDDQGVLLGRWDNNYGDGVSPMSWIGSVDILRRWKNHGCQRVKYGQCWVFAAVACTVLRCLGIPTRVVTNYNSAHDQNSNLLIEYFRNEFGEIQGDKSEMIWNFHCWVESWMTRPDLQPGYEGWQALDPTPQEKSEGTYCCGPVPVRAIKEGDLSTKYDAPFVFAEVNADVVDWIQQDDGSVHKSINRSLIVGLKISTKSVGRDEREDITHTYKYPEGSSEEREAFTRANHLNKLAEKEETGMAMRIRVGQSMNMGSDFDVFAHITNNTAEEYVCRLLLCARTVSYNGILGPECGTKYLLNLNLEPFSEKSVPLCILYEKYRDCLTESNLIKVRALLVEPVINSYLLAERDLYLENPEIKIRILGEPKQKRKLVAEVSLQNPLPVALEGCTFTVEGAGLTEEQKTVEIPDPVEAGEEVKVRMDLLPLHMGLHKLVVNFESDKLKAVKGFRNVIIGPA
Assay: Transglutaminase assay (DCC-assay): incorporation of dansylcadaverine into dimethylcasein
Type: biochemical
Conditions: recombinant human TG2 10 nM; dansylcadaverine incorporation into dimethylcasein; read-out: IC50 TG2
pIC50: −log10 of the molar value.
ENDPOINT LABEL: pIC50

# example entries with known answers
COMPOUND	ENDPOINT LABEL	REPORTED RESULT
CNC(=O)C(=O)CC[C@H](NC(=O)c1cncnc1C)C(=O)Nc1cccn(CC(=O)NC2C3CC4CC2CC(C(=O)O)(C4)C3)c1=O (stereo partly shown) [II-173]	pIC50	6.40 to 7.40
CC(C)(C)NC(=O)C(=O)CC[C@H](NC(=O)[C@@H]1CN2CCN1CC2)C(=O)Nc1cccn(CC(=O)NC2C3CC4CC(C3)CC2C4)c1=O (stereo partly shown) [II-175]	pIC50	5.60 to 6.40
CCn1c(C(=O)N[C@@H](CCC(=O)C(=O)NC2CCCCC2)C(=O)Nc2cccn(CC(=O)NC34CC(C3)C4)c2=O)cc2ccccc21 [II-183]	pIC50	6.40 to 7.40
NC(=O)C(=O)CC[C@H](NC(=O)c1cc(Cl)sc1Cl)C(=O)Nc1cccn(CC(=O)NC2C3CC4CC(C3)CC2C4)c1=O (stereo partly shown) [II-125]	pIC50	6.40 to 7.40
O=C(Cn1cccc(NC(=O)[C@H](CCC(=O)C(=O)NCc2ccccc2)NC(=O)c2cc3ccccc3o2)c1=O)NC1C2CC3CC(C2)CC1C3 (stereo partly shown) [II-123]	pIC50	5.60 to 6.40

**Query** For the compound O=C(Cn1cccc(NC(=O)[C@H](CCC(=O)C(=O)NC2CC2)NC(=O)c2cc3ccccc3o2)c1=O)NC1C2CC3CC(C2)CC1C3 (stereo partly shown) [II-121] , report pIC50.
**Result** 6.40 to 7.40

**Query** Please give the documented pIC50 of CNC(=O)C(=O)CC[C@H](NC(=O)c1cc(Cl)sc1Cl)C(=O)Nc1cccn(CC(=O)N[C@@H]2C[C@H]3CC[C@@H]2C3)c1=O [II-128]
**Result** 6.40 to 7.40

**Query** Answer with the recorded pIC50 of CNC(=O)C(=O)CC[C@H](NC(=O)c1cc(Cl)c(Cl)s1)C(=O)Nc1cccn(CC(=O)NC2C3CC4CC(C3)CC2C4)c1=O (stereo partly shown) [II-49] only.
**Result** > 7.40

**Query** Retrieve pIC50 measured for CNC(=O)C(=O)CC[C@H](NC(=O)c1cc2ccc(N(C)C)cc2o1)C(=O)Nc1cccn(CC(=O)NC23CC(C2)C3)c1=O [II-190] and print it.
**Result** 5.60 to 6.40

**Query** Supply pIC50 value. Item: CNC(=O)C(=O)CC[C@H](NC(=O)c1ccc(Cl)o1)C(=O)Nc1cccn(CC(=O)NC2C3CC4CC(C3)CC2C4)c1=O (stereo partly shown) [II-26]
**Result** 6.40 to 7.40

**Query** Output measured pIC50 for this item: CNC(=O)C(=O)CC[C@H](NC(=O)c1cc(Cl)sc1Cl)C(=O)Nc1cccn(CC(=O)N[C@H]2C[C@H]3CC[C@]2(C)C3(C)C)c1=O [II-160]
**Result** 6.40 to 7.40

**Query** Complete the entry with pIC50 for CNC(=O)C(=O)CC[C@H](NC(=O)C1CCc2ccccc2C1)C(=O)Nc1cccn(CC(=O)NC2C3CC4CC2CC(C(=O)N(C)C)(C4)C3)c1=O (stereo partly shown) [II-174]
**Result** 6.40 to 7.40

**Query** For the compound CNC(=O)C(=O)CC[C@H](NC(=O)c1nc(Br)sc1C)C(=O)Nc1cccn(CC(=O)NC2C3CC4CC(C3)CC2C4)c1=O (stereo partly shown) [II-34] , give its measured pIC50 value.
**Result** 6.40 to 7.40
